- measurementDescription: NCI Yeast Anticancer Drug Screen. Data for the mec2-1 strain (AID 157)
- details: S. cerevisiae mec2-1 strain, at 5.0 µM (retest, dose inferred, filed as 0.5), stronger effect = higher value
The panel holds about 79,000 compounds, 15% with a hit somewhere; the sample as a whole holds those more often.
readoutLabel: growth inhibition (%)

INSERT INTO assay_data (compound, readoutlabel, unitlabel, valuereported) VALUES
  ('O=C(COc1ccc(Cl)c(Cl)c1)N(Cc1ccccc1)Cc1ccc[n+](Cc2ccc(Cl)cc2S(=O)(=O)F)c1', 'growth inhibition', '%', 44),
  ('ClCCN(CCCl)B(N(CCCl)CCCl)N(CCCl)CCCl', 'growth inhibition', '%', -23),
  ('CCC1(O)C(=O)OCc2c1cc1n(c2=O)Cc2cc3ccc(C#N)cc3nc2-1 (configuration not stated)', 'growth inhibition', '%', 11),
  ('CC(C)O.CC(C)O.OCCN(CCO)CCO.OCCN(CCO)CCO.[Ti+2]', 'growth inhibition', '%', 44),
  ('CC(=O)C1CCC2C3CCC4CC([N+]5(C)CCCCC5)CCC4(C)C3CCC12C (configuration not stated)', 'growth inhibition', '%', 17),
  ('CCCCCCCCC(=O)[O][Hg][c]1ccccc1', 'growth inhibition', '%', 100),
  ('CCC[CH2][Sn]1([CH2]CCC)[O]C(=O)c2cccc(C)c2[O]1', 'growth inhibition', '%', 89),
  ('Brc1ccc(N2C[N+](c3ccc(Br)cc3)=NC(c3ccccc3)=N2)cc1', 'growth inhibition', '%', -2),
  ('O=[N+]([O-])c1cc([N+](=O)[O-])c(Cl)cc1F', 'growth inhibition', '%', 99),
  ('CCC[CH2][Pb]([CH2]CCC)([O]C(C)=O)[O]C(C)=O', 'growth inhibition', '%', 63),
  ('CCCCCCCCCCCCCCCCP(=O)(O)OCC(N)C(=O)O (configuration not stated)', 'growth inhibition', '%', -11),
  ('ClCCN(CCCl)c1ccc(C2N(Cc3ccc(Cl)cc3)CCCN2Cc2ccc(Cl)cc2)cc1', 'growth inhibition', '%', 10);

---

- measurementDescription: NCI Yeast Anticancer Drug Screen. Data for the wt2 strain (AID 169);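 further: 0% = growth of vehicle-treated yeast cultures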
- details: S. cerevisiae wt2 strain growth inhibition; at 3.7 µM; stronger effect = higher value
Compounds without any hit were thinned out: in the full panel of roughly 79,000, 15% have a hit.
readoutLabel: growth inhibition (%)

INSERT INTO results (compound, unitlabel, valuereported) VALUES
  ('Cc1cccc(NC(=O)CBr)c1', '%', 33),
  ('NC1=NCC(c2ccc(Cl)cc2)O1 (stereo not drawn)', '%', 0),
  ('C[N+](CCCl)(CCCl)Cc1cccc2cccc([N+](=O)[O-])c12', '%', -6),
  ('CSc1ccccc1[As](C)C', '%', 21),
  ('O=C(O)C1C2c3ccccc3C(c3ccccc32)C1C(=O)O (stereo not drawn)', '%', -10),
  ('CC[C@](O)(C(=O)O)c1cc2n(c(=O)c1CO)Cc1cc3ccccc3nc1-2', '%', 13),
  ('O=[N+]([O-])c1cc([As](Br)c2ccc(O)c([N+](=O)[O-])c2)ccc1O', '%', 94),
  ('Cc1cc[n+](C2=C(Nc3cccc(C(F)(F)F)c3)C(=O)c3ccccc3C2=O)cc1', '%', 1),
  ('C[N+]1(CCCl)CC[N+](C)(CCCl)CC1 (stereo not drawn)', '%', 0),
  ('Oc1cccc2nc3ccccc3nc12', '%', -44),
  ('COC(COC(=O)N1CCN(C=O)CC1)C1=C(N2CC2)C(=O)C(C)=C(N2CC2)C1=O (stereo not drawn)', '%', -33),
  ('C/C(=N\O)c1ccc2ccc3ccccc3c2c1', '%', -1),
  ('[O-][n+]1c2cccc(O)c2[n+]([O-])c2cccc(O)c21', '%', 5),
  ('CC1=C(CO)C2=C(C)C3(CC3)[C@@](C)(O)C(=O)C2=C1', '%', 0),
  ('CC1CCC2(NC1)OC1CC3C4CCC5CC(OC6OC(CO)C(OC7OC(CO)C(O)C(OC8OCC(O)C(O)C8O)C7OC7OC(CO)C(O)C(O)C7O)C(O)C6O)CCC5(C)C4CCC3(C)C1C2C (stereo not drawn)', '%', -20),
  ('COc1cc(O)c2c(O)c3c(c4c2c1[C@]1(C4)C(C)=CCCC1(C)C)[C@H](O)[C@@]1(O)CC(=O)C(C(N)=O)=C(O)[C@@]1(O)C3=O', '%', -16),
  ('O=C(O)C1C2C=CC(C2)C1c1ccccc1 (stereo not drawn)', '%', 5),
  ('CCC1(O)C(=O)OCc2c1cc1n(c2=O)Cc2c-1nc1ccccc1c2OC (stereo not drawn)', '%', -5),
  ('O=c1oc2ccccc2c(O)c1C(c1ccc2ccccc2c1)c1c(O)c2ccccc2oc1=O', '%', -21),
  ('CN(CCc1ccc(Br)cc1)CCN1CCCCC1', '%', 23),
  ('O=C(Nc1cc(Cl)ccc1Cl)C(Cl)(Cl)Cl', '%', 2),
  ('N#CC(C#N)=Cc1ccc(C#N)cc1', '%', -1),
  ('Cc1c2ccccc2cc2ccccc12', '%', -1),
  ('CC[C@@]1(O)C(=O)OCc2c1cc1n(c2=O)Cc2cc3ccccc3nc2-1', '%', 57),
  ('CC1=C(O)C(=O)C=C2C1=CC=C1[C@@]2(C)CCC2(C)[C@@H]3C[C@@H](C)C(=O)C[C@]3(C)CC[C@]12C (stereo partly drawn)', '%', 0),
  ('C[CH2][Sn]([CH2]C)([O]S(C)(=O)=O)[O]S(C)(=O)=O', '%', -44),
  ('CNC(=O)ON(C(C)=O)C(=O)NC', '%', -20),
  ('C/C(=N\N=C(N)N)C(CN1CCOCC1)C(c1ccccc1)c1c(O)c2ccccc2oc1=O (stereo not drawn)', '%', 0),
  ('CCOC(=O)C1=C(C(=O)OCC)C2(c3ccccc3)N(O1)c1ccccc1C2(C)C (stereo not drawn)', '%', -3),
  ('CC1CC(C)CC(C)C(O)/C(C#N)=C/C=C/CC(C2CCCC2C(=O)O)OC(=O)CC(O)C(C)C1 (stereo not drawn)', '%', 100),
  ('C[C@]12CC[C@H](O)CC1=CC[C@@H]1[C@@H]2CC[C@]2(C)C(=O)CC[C@@H]12', '%', -42),
  ('O=[N+]([O-])c1oc2ccc3ccccc3c2c1CCO', '%', 19),
  ('O=c1c2ccccc2[se]n1-c1cccnc1', '%', 18);
